- MEASURED ON: T1, B-cat-Halo (UniProt P35222 1-781)
- T1 sequence (looked up): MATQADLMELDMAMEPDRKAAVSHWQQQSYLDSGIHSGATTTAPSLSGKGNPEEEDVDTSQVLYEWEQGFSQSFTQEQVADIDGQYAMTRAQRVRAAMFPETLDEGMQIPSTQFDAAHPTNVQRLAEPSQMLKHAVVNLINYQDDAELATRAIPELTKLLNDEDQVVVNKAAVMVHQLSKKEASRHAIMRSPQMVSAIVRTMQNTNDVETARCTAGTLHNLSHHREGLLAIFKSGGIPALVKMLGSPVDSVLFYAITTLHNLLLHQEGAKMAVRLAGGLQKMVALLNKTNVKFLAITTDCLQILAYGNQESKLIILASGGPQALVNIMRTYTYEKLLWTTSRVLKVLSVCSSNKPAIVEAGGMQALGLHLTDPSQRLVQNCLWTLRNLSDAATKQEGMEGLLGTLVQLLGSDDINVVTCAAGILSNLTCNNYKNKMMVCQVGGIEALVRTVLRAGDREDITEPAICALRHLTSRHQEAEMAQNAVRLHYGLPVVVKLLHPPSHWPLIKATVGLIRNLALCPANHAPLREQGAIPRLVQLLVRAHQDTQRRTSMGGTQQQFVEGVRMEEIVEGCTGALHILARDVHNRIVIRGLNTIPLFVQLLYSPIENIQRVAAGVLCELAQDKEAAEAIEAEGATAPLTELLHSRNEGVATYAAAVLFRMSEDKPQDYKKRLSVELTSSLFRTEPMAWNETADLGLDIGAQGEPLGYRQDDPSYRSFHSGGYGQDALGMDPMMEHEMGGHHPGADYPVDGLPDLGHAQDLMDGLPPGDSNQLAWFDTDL
- PROTOCOL DESCRIPTION: cell-based or functional assay
Starred links: 1 amine or outer side, 2 acyl side, 3 side chain; linkers in the order of their positions; H or OH if unused. Positions of bridges follow the written chain, without caps; N, C: chain ends. Non-standard residues stand in square brackets, D forms with d. Primed or numbered codes have the meaning given here. (Pfbn)GA″ = [Pfbn]GA: (S)-2-amino-3-((carboxymethyl)((perfluorophenyl)methyl)amino)propanoic acid, O=C([C@H](CN(CC(=O)[*:3])Cc1c(F)c(F)c(F)c(F)c1F)N[*:1])[*:2]; PyrS2″ = (S)-3-amino-1-((pent-4-en-1-yloxy)carbonyl)pyrrolidine-3-carboxylic acid (stapling residue), C=CCCCOC(=O)N1CC[C@@](N[*:1])(C(=O)[*:2])C1; (Tfp)GA = [Tfp]GA: (S)-2-amino-3-((carboxymethyl)(3,3,3-trifluoropropyl)amino)propanoic acid, O=C([C@H](CN(CCC(F)(F)F)CC(=O)[*:3])N[*:1])[*:2]; B5(16) = 2-amino-2-(pent-4-en-1-yl)hept-6-enoic acid = 2,2-bis(4-pentenyl)glycine (stitching residue), C=CCCCC(CCCC=C)(N[*:1])C(=O)[*:2]; (Tfp)GA″ = (S)-2-amino-3-((carboxymethyl)(3,3,3-trifluoropropyl)amino)propanoic acid, O=C([C@H](CN(CCC(F)(F)F)CC(=O)[*:3])N[*:1])[*:2]; (Tfb)GA = (S)-2-amino-3-((carboxymethyl)(4,4,4-trifluorobutyl)amino)propanoic acid, O=C([C@H](CN(CCCC(F)(F)F)CC(=O)[*:3])N[*:1])[*:2]; PyrS2 = (S)-3-amino-1-((pent-4-en-1-yloxy)carbonyl)pyrrolidine-3-carboxylic acid, C=CCCCOC(=O)N1CC[C@@](N[*:1])(C(=O)[*:2])C1; (Bn)GA″ = [Bn]GA: (S)-2-amino-3-(benzyl(carboxymethyl)amino)propanoic acid, O=C([C@H](CN(CC(=O)[*:3])Cc1ccccc1)N[*:1])[*:2]; (Bn)GA = (S)-2-amino-3-(benzyl(carboxymethyl)amino)propanoic acid, O=C([C@H](CN(CC(=O)[*:3])Cc1ccccc1)N[*:1])[*:2]; B5(3) = 2,2-bis(4-pentenyl)glycine (stitching residue), C=CCCCC(CCCC=C)(N[*:1])C(=O)[*:2]; Phe(3-COOH) = N[C@@H](Cc1cccc(C(=O)O)c1)C(=O)O; 2F3MeF = Cc1cccc(C[C@H](N[*:1])C(=O)[*:2])c1F; Bta = N[C@@H](Cc1csc2ccccc12)C(=O)O; Lys(iPr) = CC(C)NCCCC[C@H](N)C(=O)O; αAllylPro = C=CC[C@@]1(C(=O)O)CCCN1; tBuAla = CC(C)(C)C[C@H](N)C(=O)O; 3Thi = N[C@@H](Cc1ccsc1)C(=O)O; S8 = C=CCCCCCC[C@](C)(N)C(=O)O; PyrS2(4) = not defined here
binders and their reported NanoBRET Abs IC50

[
  {
    "BINDER": "Ac-[αAllylPro]D[tBuAla][B5(3)]D[(Pfbn)GA″]AAFN[S8][3Thi][Bta]Q-NH2 (staple 1-4, 4-11) [I-1624]",
    "NanoBRET Abs IC50": "42.9 µM"
  },
  {
    "BINDER": "Ac-[αAllylPro]D[tBuAla][B5(3)]D[(Tfp)GA]AAFN[S8][3Thi][Bta]Q-NH2 (staple 1-4, 4-11) [I-1625]",
    "NanoBRET Abs IC50": "29.3 µM"
  },
  {
    "BINDER": "Ac-[αAllylPro]D[tBuAla][B5(16)]D[(Me)GA]AAFN[PyrS2(4)][3Thi][Bta]Q-NH2 (staple 1-4, 4-11; not fully specified; printed as Ac-PL3-Asp-Npg-B5-Asp-[Me]GA-Ala-Ala-Phe-Asn-PyrS2-3Thi-BztA-Gln-NH2; reading uncertain) [I-1637]",
    "NanoBRET Abs IC50": "> 20 µM"
  },
  {
    "BINDER": "Ac-[αAllylPro]D[tBuAla][B5(3)]D[(Tfb)GA]AAFN[PyrS2][3Thi][Bta]Q-NH2 (staple 1-4, 4-11) [I-1634]",
    "NanoBRET Abs IC50": "16.5 µM"
  },
  {
    "BINDER": "Ac-[αAllylPro]D[tBuAla][B5(3)]D[(Bn)GA]AAFN[PyrS2][3Thi][Bta]Q-NH2 (staple 1-4, 4-11) [I-1635]",
    "NanoBRET Abs IC50": "20.6 µM"
  },
  {
    "BINDER": "Ac-[αAllylPro]D[tBuAla][B5(3)]D[Phe(3-COOH)]AAFL[PyrS2(4)][2F3MeF][Bta][Lys(iPr)]-NH2 (staple 1-4, 4-11; not fully specified; printed as Ac-PL3-Asp-Npg-B5-Asp-3COOHF-Ala-Ala-Phe-Leu-PyrS2-2F3MeF-BztA-iPrLys-NH2; reading uncertain) [I-1616]",
    "NanoBRET Abs IC50": "4.5 µM"
  },
  {
    "BINDER": "Ac-[αAllylPro]D[tBuAla][B5(3)]D[(Bn)GA″]AAFL[PyrS2″][3Thi][Bta]Q-NH2 (staple 1-4, 4-11) [I-1630]",
    "NanoBRET Abs IC50": "5 µM"
  },
  {
    "BINDER": "Ac-[αAllylPro]D[tBuAla][B5(3)]D[(Tfp)GA″]AAFL[PyrS2][3Thi][Bta]Q-NH2 (staple 1-4, 4-11) [I-1633]",
    "NanoBRET Abs IC50": "5.2 µM"
  }
]
